src = patent US20120213794A1

- ASSAYED_SYSTEM: rhesus PCSK9 (rhesus, UniProt A8T666 31-692, limits assumed)
- Sequence (A8T666 31-692 limits assumed): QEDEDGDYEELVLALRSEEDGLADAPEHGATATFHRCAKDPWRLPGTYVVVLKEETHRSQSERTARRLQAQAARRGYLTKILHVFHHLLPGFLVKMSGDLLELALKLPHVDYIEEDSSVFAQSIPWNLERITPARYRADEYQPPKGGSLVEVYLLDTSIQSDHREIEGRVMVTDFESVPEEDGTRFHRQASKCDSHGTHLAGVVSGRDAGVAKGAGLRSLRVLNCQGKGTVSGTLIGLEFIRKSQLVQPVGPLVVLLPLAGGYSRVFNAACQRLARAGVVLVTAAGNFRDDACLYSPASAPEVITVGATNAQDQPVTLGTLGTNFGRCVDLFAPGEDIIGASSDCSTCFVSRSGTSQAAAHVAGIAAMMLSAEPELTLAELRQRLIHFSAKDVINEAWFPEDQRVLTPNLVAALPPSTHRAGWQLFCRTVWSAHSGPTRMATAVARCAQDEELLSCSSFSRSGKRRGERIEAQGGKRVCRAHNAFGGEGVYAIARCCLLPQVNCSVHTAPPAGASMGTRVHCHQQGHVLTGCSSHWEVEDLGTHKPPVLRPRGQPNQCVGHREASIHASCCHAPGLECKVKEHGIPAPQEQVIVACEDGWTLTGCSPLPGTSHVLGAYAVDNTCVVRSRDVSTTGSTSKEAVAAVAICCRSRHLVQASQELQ
- PROTOCOL_DETAILS: cell-based or functional assay
Form field: IgG2 IC50 (nM), inhibition of PCSK9 (LDL uptake assay) (one value per entry).
ASSAY_ENDPOINT: IgG2 IC50 (nM), inhibition of PCSK9 (LDL uptake assay)

INSERT INTO results (binder, unit, result_number) VALUES
  ('AX212 IgG2 (antibody, V domains shown) VH: QVQLLESGGGLVQPGGSLRLSCKASGYTFSSYSFSWVRQAPGKGLEWIGYIDPGSGGTKYNQKFQGKATISRDNSKNTLYLQMNSLRAEDTAVYYCARQRVGYSLDYWGQGTLVTVSS VL: EIVLTQSPATLSLSPGERATITCRASQYVGSYLNWYQQKPGQAPRLLIYDASNRATGIPARFSGSGSGTDFTLTISSLEPEDFAVYYCQVWDSSPPVVFGGGTKVEIK', 'nM', 4.7),
  ('AX137 IgG2 (antibody, V domains shown) VH: EVQLLESGGGLVQPGGSLRLSCKASGYTFSSYGMYWVRQAPGKGLEWIGWIDPGSGGTKYNEKFKGKATISRDNSKNTLYLQMNSLRAEDTAVYYCARERYGYYFDYWGQGTLVTVSS VL: EIVLTQSPATLSLSPGERATITCRASQYIGSYLNWYQQKPGQAPRLLIYDASNRATGIPARFSGSGSGTDFTLTISSLEPEDFAVYYCQAWDSSPPVVFGGGTKVEIK', 'nM', 10),
  ('AX114 IgG2 (antibody, V domains shown) VH: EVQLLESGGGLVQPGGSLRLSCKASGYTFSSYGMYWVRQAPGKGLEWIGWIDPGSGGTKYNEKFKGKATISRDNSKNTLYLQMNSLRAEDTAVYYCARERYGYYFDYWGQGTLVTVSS VL: EIVLTQSPATLSLSPGERATITCRASQYVGTYLNWYQQKPGQAPRLLIYDASNRATGIPARFSGSGSGTDFTLTISSLEPEDFAVYYCQVWDSSPPVAFGGGTKVEIK', 'nM', 14.4);
